Where these numbers come from: patent US9611252B2

Parameter: pIC50. Scope: all listed entries.
# tested_system: human Plasma Kallikrein (Homo sapiens (Human), UniProt P03952)
# Sequence (P03952 20-638): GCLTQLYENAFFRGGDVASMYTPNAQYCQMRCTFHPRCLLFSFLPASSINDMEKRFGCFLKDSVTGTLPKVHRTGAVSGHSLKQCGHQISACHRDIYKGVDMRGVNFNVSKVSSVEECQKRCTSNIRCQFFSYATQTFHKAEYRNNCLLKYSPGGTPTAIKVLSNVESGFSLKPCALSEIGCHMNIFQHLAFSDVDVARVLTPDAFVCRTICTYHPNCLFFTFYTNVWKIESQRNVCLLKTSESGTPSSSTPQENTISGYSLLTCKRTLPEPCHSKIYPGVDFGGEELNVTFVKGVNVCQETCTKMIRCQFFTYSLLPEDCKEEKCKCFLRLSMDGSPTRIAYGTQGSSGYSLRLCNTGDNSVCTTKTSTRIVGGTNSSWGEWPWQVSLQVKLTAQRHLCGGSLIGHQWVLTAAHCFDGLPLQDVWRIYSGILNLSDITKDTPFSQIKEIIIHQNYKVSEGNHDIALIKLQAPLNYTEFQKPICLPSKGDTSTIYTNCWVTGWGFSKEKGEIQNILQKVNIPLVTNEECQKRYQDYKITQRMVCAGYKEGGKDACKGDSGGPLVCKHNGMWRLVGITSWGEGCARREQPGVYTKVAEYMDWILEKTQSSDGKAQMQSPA
# procedure_summary: In vitro enzyme inhibition of human plasma kallikrein (PFR-AMC cleavage)
# Format: biochemical
# test_settings: human plasma kallikrein, Pro-Phe-Arg-AMC substrate, 37° C.; read-out: hPK IC50
# Procedure: The ability of the compounds disclosed herein to inhibit human plasma kallikrein activity was quantified according to the procedures below. A 10 mM solution of the test compound was made in DMSO. […] A control tube containing only DMSO is included. […] 50 μL was removed from this mixture and placed into duplicate wells on a Microfluor 1Black U-bottom microtiter plate (Thermo Scientific). […] Cleavage of PFR-AMC was monitored in a Biotek Synergy H4 reader set at 37° C. […]
pIC50: −log10 of the molar value.

structure_notation	tested_system	pIC50
Cc1nc(N)ccc1CNC(=O)c1ccnc(Cc2cc(F)c3ncc(Cl)cc3c2)c1	human Plasma Kallikrein (Homo sapiens (Human), UniProt P03952)	> 7.00
Cc1cnc2c(C(N)=O)cc(Cc3cc(C(=O)NCc4ccc5[nH]cc(Cl)c5c4F)ccn3)cc2c1	human Plasma Kallikrein (Homo sapiens (Human), UniProt P03952)	> 7.00
Cc1cnc2c(S(C)(=O)=O)cc(Cc3cc(C(=O)NCc4cc5c(Cl)c[nH]c5cc4F)ccn3)cc2c1	human Plasma Kallikrein (Homo sapiens (Human), UniProt P03952)	> 7.00
Cc1nc(N)ccc1CNC(=O)c1ccnc(Cc2cc(C(N)=O)c3ncc(Cl)cc3c2)c1	human Plasma Kallikrein (Homo sapiens (Human), UniProt P03952)	> 7.00
Cc1cnc2c(C(N)=O)cc(Cc3cc(C(=O)NCc4cc5cc[nH]c5cc4F)ccn3)cc2c1	human Plasma Kallikrein (Homo sapiens (Human), UniProt P03952)	> 7.00
N#Cc1ccc2cc(Cc3cc(C(=O)NCc4ccc5c(N)nccc5c4)ccn3)ccc2n1	human Plasma Kallikrein (Homo sapiens (Human), UniProt P03952)	> 7.00
Cc1cc(N)nc(C)c1CNC(=O)c1ccnc(Cc2ccc3ncc(C#N)cc3c2)c1	human Plasma Kallikrein (Homo sapiens (Human), UniProt P03952)	> 7.00
Cc1cc(N)ncc1CNC(=O)c1ccnc(Cc2ccc3ncc(Cl)cc3c2)c1	human Plasma Kallikrein (Homo sapiens (Human), UniProt P03952)	> 7.00
Cc1cnc2c(S(C)(=O)=O)cc(Cc3cc(C(=O)NCc4cc5cc[nH]c5cc4F)ccn3)cc2c1	human Plasma Kallikrein (Homo sapiens (Human), UniProt P03952)	> 7.00
Nc1nccc2cc(CNC(=O)c3ccnc(Cc4cnc5cc(Cl)ccc5c4)c3)ccc12	human Plasma Kallikrein (Homo sapiens (Human), UniProt P03952)	> 7.00
Cc1cc(N)nc(C)c1CNC(=O)c1ccnc(Cn2ccc3cc(Cl)ccc3c2=O)c1	human Plasma Kallikrein (Homo sapiens (Human), UniProt P03952)	5.00 to 6.00
Cc1cc(N)ncc1CNC(=O)c1ccnc(Cn2cc3cc(Cl)ccc3cc2=O)c1	human Plasma Kallikrein (Homo sapiens (Human), UniProt P03952)	6.00 to 7.00

###

Parameter pIC50: see the listing below.
# tested_system: human Plasma Kallikrein (Homo sapiens (Human), UniProt P03952)
# procedure_summary: In vitro enzyme inhibition of human plasma kallikrein (PFR-AMC cleavage)
# Format: biochemical
# test_settings: human plasma kallikrein, Pro-Phe-Arg-AMC substrate, 37° C.; read-out: hPK IC50
pIC50: −log10 of the molar value.

compound	pIC50
N#Cc1cc(Cc2cc(C(=O)NCc3cc4cc[nH]c4cc3F)ccn2)cc2cc(Cl)cnc12 [Example 52]	> 7.00
Cc1cc(N)nc(C)c1CNC(=O)c1ccnc(Cn2cc3cc(Cl)ccc3n2)c1 [Example 106]	> 7.00
O=C(NCc1cc2c(Cl)c[nH]c2cc1F)c1ccnc(Cc2cnc3ccc(F)cc3c2)c1 [Example 120]	> 7.00
N#Cc1cc(Cc2cc(C(=O)NCc3cnc4[nH]cc(Cl)c4c3)ccn2)cc2cc(Cl)cnc12 [Example 55]	> 7.00
